- measurement-target: von Willebrand factor A1 domain (Homo sapiens)
- protocol-details: filter
- protocol-conditions: 2'-OMe A,G,U; 2'-deoxy C; pool; DPBS with Ca2+ and Mg2+

# record-sequence, measurement-target, Kd (nM)
data = [
    ("GGGAGAATTCCGACCACAAGNNNNNNNNNNNNNNNNNNNNNNNNNNNNNNNNNNNNNNNNCATATGTGCGTCTACATGGATCCTCA [ARC4218 dCmD round 6 pool, vWF selection]", "von Willebrand factor A1 domain (Homo sapiens)", 4),
]

* * *

- measurement-target: von Willebrand factor (vWF) (Homo sapiens)
- protocol-details: filter
- protocol-conditions: 2'-OMe A,G,U; 2'-deoxy C; pool; DPBS with Ca2+ and Mg2+

# record-sequence, Kd (nM)
records = [
    ("GGGAGAATTCCGACCACAAGNNNNNNNNNNNNNNNNNNNNNNNNNNNNNNNNNNNNNNNNCATATGTGCGTCTACATGGATCCTCA [ARC4218 dCmD round 6 pool, vWF selection]", 2),
]

* * *

- Tested on: IgE (Homo sapiens)
- protocol-details: filter
- protocol-conditions: 2'-OMe A,G,U; 2'-deoxy C; pool; DPBS with Ca2+ and Mg2+

# record-sequence, measurement-target, Kd [nM]
records = [
    ("GGGAGAATTCCGACCACAAGNNNNNNNNNNNNNNNNNNNNNNNNNNNNNNNNNNNNNNNNCATATGTGCGTCTACATGGATCCTCA [ARC4218 dCmD round 6 pool, IgE selection]", "IgE (Homo sapiens)", 8),
]
